Tested on: T-47D breast
measurement notes: NCI-60 one-dose screen, 48 h
stated conditions: 10 µM unless noted
About 83,000 compounds went through this panel and 20% of them were active in at least one assay; those are over-represented in the sample as a whole. Active and inactive are the calls of the source. The calls were made as follows: active = growth percent below 10; inactive = the rest.
Allowed answers: active, inactive

INSERT INTO results (compound, class_name) VALUES
  ('COc1ccc2c(CCCCC(c3ccccc3)c3ccccc3)c3[n+](cc2c1OC)CCc1cc2c(cc1-3)OCO2', 'active'),
  ('COc1ccc2c(OCc3nnc4ccc(-c5ccccc5)nn34)ccnc2c1', 'inactive'),
  ('Cc1ccc(-[n+]2c3cc(N)c(C)cc3nc3cc(C)c(Nc4ccccc4)cc32)cc1', 'active');

Okay, next one:
Asked: I would be grateful if you could indicate the recorded call for S=C(NCc1ccc2c(c1)OCO2)N1CCN(c2ncnc3c2oc2ccccc23)CC1 .
Given back: active

###

Form field: growth (one value per entry).
Tested on: OVCAR-4 ovarian
measurement notes: NCI-60 one-dose screen, 48 h (100 = growth as untreated, 0 = no growth, -100 = all killed)
stated conditions: 10 µM unless noted
Compounds without any hit were thinned out: in the full panel of roughly 83,000, 20% have a hit.
Give just the numeric value; % need not be written.

INSERT INTO results (smiles_str, value_measured) VALUES
  ('N#Cc1c(-c2ccc(Cl)cc2)csc1NC(=O)Nc1cccc(C(F)(F)F)c1', 10.4),
  ('O=C(NO)c1ccc(Cn2c(=O)n(-c3ccccc3F)c(=O)c3ccccc32)cc1', 18.2),
  ('CNC(=O)c1cc(Oc2cccc3nc(Nc4ccc(Oc5ccccc5)cc4)ccc23)ccn1', 52.1),
  ('C/C=C/C=N/NC(=S)Nc1ccccc1', 94.1),
  ('CC[n+]1c(/C=C/C=C2\N(C)c3ccccc3C2(C)C)sc2ccccc21', 19.9),
  ('COc1ccc2c(CCCCC(c3ccccc3)c3ccccc3)c3[n+](cc2c1OC)CCc1cc2c(cc1-3)OCO2', -80.2),
  ('CC(C)(C)c1cnc(CSc2cnc(NC(=O)C3CCNCC3)s2)o1', 9.94),
  ('Cc1cc(N(CCNc2ccnc3cc(Cl)ccc23)Cc2ccc3c(c2)OCO3)nc(N2CCN(C)CC2)n1', 36),
  ('CN1CC[C@H](c2c(O)cc(O)c3c(=O)cc(-c4ccccc4Cl)oc23)[C@H](O)C1', 1.82);

Asked: Name the reported growth value associated with the compound CCCCn1c(C)nc2ccc(Nc3nc(N4CCN(C)CC4)nc4nc[nH]c34)cc21
Given back: 97.8

###

Tested on: PC-3 prostate
measurement notes: NCI-60 one-dose screen, 48 h (100 = growth as untreated, 0 = no growth, -100 = all killed)
stated conditions: 10 µM unless noted
The panel holds about 83,000 compounds, 20% with a hit somewhere; the sample as a whole holds those more often. Active and inactive are the calls of the source. How the source made its calls: active means growth percent below 10; inactive means the rest.
Form field: growth (one value per entry).

INSERT INTO assay_data (molecule, metric, value_measured) VALUES
  ('CCC1(/C=N/NC(N)=S)NC(=O)NC1=O (stereo not drawn)', 'growth', '85.1% (inactive)');

Asked: Name the reported growth value associated with the molecule CNC(=O)CN1CCC(Oc2cc3c(Nc4cccc(Cl)c4F)ncnc3cc2OC)CC1
Given back: 65.7% (inactive)

Asked: Name the reported growth value associated with the molecule CN(N)c1nc2sc3c(c2c(=O)[nH]1)CCCC3
Given back: 94.9% (inactive)

Asked: Name the reported growth value associated with the molecule COc1ccc2c(CCCCC(c3ccccc3)c3ccccc3)c3[n+](cc2c1OC)CCc1cc2c(cc1-3)OCO2
Given back: -75% (active)

Asked: Name the reported growth value associated with the molecule CN1CCC(COc2cnc(-c3cccc(Cn4nc(-c5cccc(C#N)c5)ccc4=O)c3)nc2)CC1
Given back: 67.8% (inactive)

Asked: Name the reported growth value associated with the molecule O=C(c1c(F)ccc(NS(=O)(=O)N2CC[C@@H](F)C2)c1F)c1c[nH]c2ncc(-c3cnc(C4CC4)nc3)cc12
Given back: 46.5% (inactive)

Asked: Name the reported growth value associated with the molecule C=CC(=O)Nc1cc2c(Nc3ccc(F)c(Cl)c3)ncnc2cc1OCCCN1CCOCC1
Given back: 17.5% (inactive)

Asked: Name the reported growth value associated with the molecule COc1ccc2c(OCc3nnc4ccc(-c5ccccc5)nn34)ccnc2c1
Given back: 96.9% [2.5 µM] (inactive)

Asked: Name the reported growth value associated with the molecule O=C(COc1cccc(/C=C2\Cc3ccc(Cl)cc3C2=O)c1)Nc1nccs1
Given back: 88% (inactive)

Asked: Name the reported growth value associated with the molecule c1cc(OCCN2CCCCC2)cc(-c2n[nH]c3ccc(-c4ncn[nH]4)cc23)c1
Given back: 86.9% (inactive)

Asked: Name the reported growth value associated with the molecule COc1ccc2nc3cc(Cl)ccc3c(Nc3ccc(N(C)C)cc3)c2c1
Given back: 85.4% (inactive)

Asked: Name the reported growth value associated with the molecule Brc1ccc([I+]c2ccc(Br)cc2)cc1
Given back: 24.7% (inactive)

Asked: Name the reported growth value associated with the molecule Cc1cc2c(-c3nc4ccccn4c3N)c(O)c(O)cc2c(O)c1-c1c(C)cc2c(-c3nc4ccccn4c3N)c(O)c(O)cc2c1O
Given back: 16.3% (inactive)

Asked: Name the reported growth value associated with the molecule CC(=O)C1=C(C)NC(SCc2nnc(-c3ccc(C)cc3)o2)=NC1c1ccc(F)cc1 (stereo not drawn)
Given back: 85.3% (inactive)

Asked: Name the reported growth value associated with the molecule CC(C)=CCc1cc2c(cc1O)C1=C(C(=O)C3=C(NCCS3(=O)=O)C1=O)C(C=C(C)C)O2 (stereo not drawn)
Given back: 16.4% (inactive)

Asked: Name the reported growth value associated with the molecule O=C(NOCCO)c1cc(CN2OCCCC2=O)c(F)c(F)c1Nc1ccc(I)cc1F
Given back: 99.3% (inactive)

Asked: Name the reported growth value associated with the molecule O=c1sn(-c2cccc3ccccc23)c(=O)n1Cc1ccccc1
Given back: 89.9% (inactive)

Asked: Name the reported growth value associated with the molecule COc1c(C(NC(=O)c2ccccc2)c2sccc2C)cc(Cl)c2cccnc12 (stereo not drawn)
Given back: 83.2% (inactive)

Asked: Name the reported growth value associated with the molecule O=C(NOCCO)c1ccc2cncn2c1Nc1ccc(I)cc1F
Given back: 81% (inactive)

###

System: MOLT-4 leukemia
measurement notes: NCI-60 one-dose screen, 48 h
stated conditions: 10 µM unless noted
This is part of a sample that, as a whole, favours compounds with a hit. Of some 83,000 tested, about 20% had one in any assay. Calls of active or inactive are those of the source. The calls were made as follows: active = growth percent below 10; inactive = the rest.
Allowed answers: active, inactive

Example results:
INSERT INTO measurements (molecule, target, class_name) VALUES
  ('COc1cc2c(Nc3ccc(Br)cc3F)ncnc2cc1OCC1CCN(C)CC1', 'MOLT-4 leukemia', 'inactive'),
  ('COc1ccc(/C(C)=C(\c2ccc(Cl)cc2)c2ccc(OCCN3CCCCCC3)cc2)cc1', 'MOLT-4 leukemia', 'inactive'),
  ('CN(C)C1CCN(C(=O)c2ccc(NC(=O)Nc3ccc(-c4nc(N5CCOCC5)nc(N5CCOCC5)n4)cc3)cc2)CC1', 'MOLT-4 leukemia', 'active'),
  ('CN1CCN(CCOc2cc(OC3CCOCC3)c3c(Nc4c(Cl)ccc5c4OCO5)ncnc3c2)CC1', 'MOLT-4 leukemia', 'inactive'),
  ('Cc1sc2c(c1C)c(=O)nc1c(-c3nc(-c4ccccc4)cs3)n[nH]n12', 'MOLT-4 leukemia', 'inactive');

Asked: I would be grateful if you could indicate the recorded call for CC(C)(C)C(=O)OCOP(=O)(OCOC(=O)C(C)(C)C)C1CCCN(OC(=O)c2ccccc2)C1=O (stereo not given) .
Given back: active

Asked: I would be grateful if you could indicate the recorded call for CO[C@H]1C[C@@H]2CC[C@@H](C)[C@@](O)(O2)C(=O)C(=O)N2CCCC[C@H]2C(=O)O[C@H]([C@H](C)C[C@@H]2CC[C@@H](OP(C)(C)=O)[C@H](OC)C2)CC(=O)[C@H](C)/C=C(\C)[C@@H](O)[C@@H](OC)C(=O)[C@H](C)C[C@H](C)\C=C/C=C/C=C/1C .
Given back: inactive

Asked: I would be grateful if you could indicate the recorded call for C=C1C(=O)O[C@H]2[C@H]1CC/C(CNC(=O)c1cc3cc(OC)ccc3[nH]1)=C\CC[C@@]1(C)O[C@@H]21 .
Given back: active

Asked: I would be grateful if you could indicate the recorded call for O=C1CCC(=O)CC1 .
Given back: inactive

Asked: I would be grateful if you could indicate the recorded call for NN1C(=O)CSC1=S .
Given back: inactive

###

Form field: growth (one value per entry).
Tested on: UACC-62 melanoma
measurement notes: NCI-60 one-dose screen, 48 h (100 = growth as untreated, 0 = no growth, -100 = all killed)
stated conditions: 10 µM unless noted
This is part of a sample that, as a whole, favours compounds with a hit. Of some 83,000 tested, about 20% had one in any assay.
Give just the numeric value; % need not be written.

See these solved cases before continuing.
INSERT INTO measurements (molecule, metric, units_symbol, value_measured) VALUES
  ('CCCCCCC1(/C=N/NC(N)=O)NC(=O)NC1=O (stereo not given)', 'growth', '%', 99),
  ('COc1cc2c(Oc3ccc4[nH]c(C)cc4c3F)ncnc2cc1OCCCN1CCCC1', 'growth', '%', 103),
  ('CN1CCC(CNc2ccc3ncc(-c4cccc(OC(F)(F)F)c4)n3n2)CC1', 'growth', '%', -95);

--- query ---
Asked: Name the reported growth value associated with the molecule C/C(=C(/c1ccc(Cl)cc1)c1ccc(OCCN2CCCCCC2)cc1)c1ccccc1
Given back: 90
